# System: Hepatitis B virus core protein
# EXPERIMENT DESCRIPTION: Selectivity index, ratio of CC50 for human HepG2 cells to IC50 for Hepatitis B virus core protein expressed in HEK293T cells
# Type: toxicity, cell-based
# CONDITION: read-out: Ratio CC50/IC50
Answer each item with its documented selectivity ratio.

Specify reported selectivity ratio for the compound shown: OCCn1c(Sc2ccc(F)cc2)nc2ccccc21
3.82

Tell me selectivity ratio reported for CCc1ccc(Sc2nc3ccccc3[nH]2)cc1
4.37

// Input: COCCCn1c(Cc2ccc(OC)cc2)nc2ccccc21 . Output its selectivity ratio only.
> 10.4

Answer with the recorded selectivity ratio of COc1ccc(Sc2nc3ccccc3n2C(C)=O)cc1 only.
> 8.37

Tell me measured selectivity ratio for COc1ccc(S(=O)(=O)c2nc3ccccc3[nH]2)cc1 please.
2.42

Consider the compound COc1ccc(Cc2nc3ccccc3n2CCCO)cc1 . State its measured selectivity ratio.
> 24

Give recorded selectivity ratio. COc1ccc(C2(c3nc4ccccc4[nH]3)CC2)cc1
> 4.58

Measured values drawn from ChEMBL document CHEMBL5512658 for this set.
